- assaySummary: Antiproliferative activity against over expressing […] human WSU-DLCL2 cells
- Assay type: functional
- conditionDetails: WSUDLCL2
pIC50: −log10 of the molar value.
Let's look at some compounds and their measured pIC50.

CCN(c1cc(/C=C/c2ccc3c(c2)NC(=O)CO3)cc(C(=O)NCc2c(C)c3c([nH]c2=O)CCCC3)c1C)C1CCOCC1 :: < 4.52
CCN(c1cc(/C=C/c2ccc(CN3C[C@@H](C)O[C@@H](C)C3)cc2)cc(C(=O)NCc2c3c(c(C)[nH]c2=O)CCCC3)c1C)C1CCOCC1 :: < 4.52

Measured pIC50 of `CCN(c1cc(/C=C/c2ccc(CN3CCOCC3)cc2)cc(C(=O)NCc2c3c(c(C)[nH]c2=O)CCCC3)c1C)C1CCOCC1` : < 4.52

Origin of measurements: ChEMBL document CHEMBL4627254
